# TARGET_UNDER_TEST: Trypsin (Sus scrofa, UniProt P00761)
# Construct: purchased Promega V5280
# Sequence (P00761 9-231): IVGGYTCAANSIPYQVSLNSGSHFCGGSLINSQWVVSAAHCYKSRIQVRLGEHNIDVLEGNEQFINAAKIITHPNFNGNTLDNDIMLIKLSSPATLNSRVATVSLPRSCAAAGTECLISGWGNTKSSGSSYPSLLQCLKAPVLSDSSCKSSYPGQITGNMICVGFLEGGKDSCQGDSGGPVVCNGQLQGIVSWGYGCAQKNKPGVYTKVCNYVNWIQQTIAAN
# ASSAY_METHOD_TEXT: Trypsin digestion efficiency / kinetics of signature peptide formation
# Format: biochemical
# SETTINGS: trypsin 1:20 w/w, 37 °C, AmBic/SDC buffer with 5% ACN reconstitution; 0.5-24 h; SRM peak area; Figs. 4, S3, S4
Ends that are not written are not given here.
VALUE_KIND: formation of signature peptide by trypsin digestion, rate or yield (in words)

SUBSTANCE	MEASURED_RESULT
TFLKKYLYEIARRHPYF (also: stable isotope label, residues not given here) [SIL-ExC5N5 YLYEIAR, SIL signature peptide extended with five amino acids at both C- and N-termini]	lower
RQIKKQTALVELVKHKPKA [SIL signature peptide extended with five amino acids at both C- and N-termini]	lower
